- Test system: pooled normal human plasma
- assay_explanation: Anticoagulant activity, APTT
- condition_parameters: 0.1 mg/mL in normal pooled human plasma
Please respond with label 1 when measured APTT is strictly beneath 60 s, and with label 0 in all other cases.

INPUT: Could you please tell me whether APTT recorded for CC(C)CCC[C@@H](C)[C@H]1CC[C@H]2[C@@H]3CCC4CC(O[C@@H]5O[C@H](COS(=O)(=O)O)[C@@H](O[C@@H]6O[C@H](COS(=O)(=O)O)[C@@H](OS(=O)(=O)O)[C@H](OS(=O)(=O)O)[C@H]6OS(=O)(=O)O)[C@H](OS(=O)(=O)O)[C@H]5OS(=O)(=O)O)CC[C@]4(C)[C@H]3CC[C@]12C (stereo partly drawn) is less than 60 s?
OUTPUT: label 1

INPUT: Please check: APTT for CC(C)CCCC(C)C1CCC2C3CCC4CC(OC5OC(COS(=O)(=O)O)C(OS(=O)(=O)O)C(OS(=O)(=O)O)C5OC5OC(COS(=O)(=O)O)C(OS(=O)(=O)O)C(OC6OC(COS(=O)(=O)O)C(OS(=O)(=O)O)C(OC7OC(COS(=O)(=O)O)C(OS(=O)(=O)O)C(OS(=O)(=O)O)C7OS(=O)(=O)O)C6OS(=O)(=O)O)C5OS(=O)(=O)O)CCC4(C)C3CCC12C (stereo not drawn) , strictly under 60 s or not?
OUTPUT: label 0

INPUT: # strict comparison: is reported APTT < 60 s? input = CC(C)CCCC(C)C1CCC2C3CCC4CC(OC5OC(COS(=O)(=O)O)C(OS(=O)(=O)O)C(OS(=O)(=O)O)C5OC5OC(COS(=O)(=O)O)C(OS(=O)(=O)O)C(OC6OC(COS(=O)(=O)O)C(OS(=O)(=O)O)C(OC7OC(COS(=O)(=O)O)C(OS(=O)(=O)O)C(OC8OC(COS(=O)(=O)O)C(OS(=O)(=O)O)C(OS(=O)(=O)O)C8OS(=O)(=O)O)C7OS(=O)(=O)O)C6OS(=O)(=O)O)C5OS(=O)(=O)O)CCC4(C)C3CCC12C (stereo not drawn)
OUTPUT: label 0

INPUT: Does CC(C)CCCC(C)C1CCC2C3CCC4CC(OC5OC(COS(=O)(=O)O)C(OC6OC(COS(=O)(=O)O)C(OS(=O)(=O)O)C(OS(=O)(=O)O)C6OS(=O)(=O)O)C(OS(=O)(=O)O)C5OS(=O)(=O)O)CCC4(C)C3CCC12C (stereo not drawn) have APTT strictly under 60 s?
OUTPUT: label 1

INPUT: Item CCCCCCCCCCCCCCCCCC(=O)NCCCOC1OC(COS(=O)(=O)O)C(OS(=O)(=O)O)C(OS(=O)(=O)O)C1OC1OC(COS(=O)(=O)O)C(OS(=O)(=O)O)C(OC2OC(COS(=O)(=O)O)C(OS(=O)(=O)O)C(OC3OC(COS(=O)(=O)O)C(OS(=O)(=O)O)C(OC4OC(COS(=O)(=O)O)C(OS(=O)(=O)O)C(OS(=O)(=O)O)C4OS(=O)(=O)O)C3OS(=O)(=O)O)C2OS(=O)(=O)O)C1OS(=O)(=O)O (stereo not drawn) : APTT beneath 60 s, strictly?
OUTPUT: label 0

With those in mind, consider the next compound.
INPUT: Please indicate whether the reported APTT of CC(C)CCCC(C)C1CCC2C3CCC4CC(OC5OC(COC6OC(COS(=O)(=O)O)C(OC7OC(COS(=O)(=O)O)C(OC8OC(COS(=O)(=O)O)C(OS(=O)(=O)O)C(OS(=O)(=O)O)C8OS(=O)(=O)O)C(OS(=O)(=O)O)C7OS(=O)(=O)O)C(OS(=O)(=O)O)C6OS(=O)(=O)O)C(OS(=O)(=O)O)C(OS(=O)(=O)O)C5OS(=O)(=O)O)CCC4(C)C3CCC12C (stereo not drawn) is strictly below 60 s.
OUTPUT: label 1
